assay.protocol: Preliminary assessment of in vivo pharmacokinetics in rats
conditions: rat, plasma, iv, 2 mg/kg, intravenous 2 mg/kg; 8 h; individual animals 1-3; read-out: Plasma drug concentrations in rats
metric.name: concentration at 8 h (ng/mL)
// return numeric value only (unit: ng/mL, not printed)

query: Entry CC(C)Oc1ccc(-c2nc(-c3ccc(CN4CC(C(=O)O)C4)c4ccccc34)no2)cc1C#N.Cl [Compound A1] needs its concentration at 8 h filled in; supply it.
result: 11.8

----------
assay.protocol: Preliminary assessment of in vivo pharmacokinetics in rats
conditions: rat, plasma, oral; rats; 20 mg/kg by gavage vs 2 mg/kg intravenous; read-out: absolute bioavailability
metric.name: bioavailability (%)
Enter your answer as a number in %; do not include the unit.

query: State its bioavailability for this molecule: CC(C)Oc1ccc(-c2nc(-c3ccc(CN4CC(C(=O)O)C4)c4ccccc34)no2)cc1C#N.Cl [Compound A1]
result: 22.8

From: patent US20240208954A1
